target: human plasma kallikrein (human, UniProt P03952 20-638); experiment: enzyme inhibition
Sequence (P03952 20-638): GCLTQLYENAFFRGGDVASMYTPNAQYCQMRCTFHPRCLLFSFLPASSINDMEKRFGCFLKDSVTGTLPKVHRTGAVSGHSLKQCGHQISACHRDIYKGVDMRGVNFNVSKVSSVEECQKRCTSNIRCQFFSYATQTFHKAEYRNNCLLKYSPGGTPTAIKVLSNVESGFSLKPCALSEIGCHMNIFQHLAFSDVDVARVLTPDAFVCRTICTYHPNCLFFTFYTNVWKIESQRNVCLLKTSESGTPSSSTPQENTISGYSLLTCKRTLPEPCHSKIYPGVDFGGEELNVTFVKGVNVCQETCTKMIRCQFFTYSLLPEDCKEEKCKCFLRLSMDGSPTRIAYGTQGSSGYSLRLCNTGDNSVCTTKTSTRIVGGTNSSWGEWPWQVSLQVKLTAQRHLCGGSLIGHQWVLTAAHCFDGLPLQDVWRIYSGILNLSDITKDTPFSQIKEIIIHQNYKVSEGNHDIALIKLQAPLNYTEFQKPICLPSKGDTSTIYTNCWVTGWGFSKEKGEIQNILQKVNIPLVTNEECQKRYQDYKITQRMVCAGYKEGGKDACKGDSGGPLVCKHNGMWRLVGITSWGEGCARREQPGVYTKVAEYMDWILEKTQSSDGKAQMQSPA
assay-readout: pKi
Give bare numbers, as −log10 of the molar value.

The cases that follow already have their pKi on record.
binder	pKi
TW6178 (protein) EVVREVCSEQAETGPCRAMISRWYFDVTEGKCAPFFYGGCGRNRNNFDTEEYCMAVCGSAI	7.80
TW6139 (protein) EVVREVCSEQAETGPCRAMISRWYFDVTEGKCAPFFYGGCHGNRNNFDTEEYCMAVCGSAI	7.72

Let us move to another entry and its pKi.
query: Name the reported pKi value associated with the binder TW124 (protein) EVCSEQAETGPCRAMISRWYFDVTEGKCAPFFYGGCGGNSNNFDTEEYCMAVCGSAI
result: 7.19
